Reported viability at 24 h values for a set of compounds
experiment: In vitro transfection of cells with eGFP-mRNA lipid nanoparticle (LNP preparation), fluorescence imaging and flow cytometry
Format: cell-based, mouse
condition.label: mouse, dc2.4 cells, 200 ng of mRNA per well, after 24 hours; read-out: Cell viability, %
assay.readout: viability at 24 h (%)

1) CC/C=C\C/C=C\CCCOC(=O)CCCCCCCN(CCO)CCCN(CCCCCCCC(=O)OCCC/C=C\C/C=C\CC)CCCCCCCC(=O)OCCC/C=C\C/C=C\CC :: 76.9
2) CCCCCCCCCCCCOC(=O)CCCCCN(CCCO)CCCN(CCCCCC(=O)OCCCCCCCCCCCC)CCCCCC(=O)OCCCCCCCCCCCC :: 95
3) CCCCCCCCCCOC(=O)CCCN(CCCO)CCCN(CCCC(=O)OCCCCCCCCCC)CCCC(=O)OCCCCCCCCCC :: 93.2
4) CCCCCCCCCCCCOC(=O)CCCCCN(CCO)CCCN(CCCCCC(=O)OCCCCCCCCCCCC)CCCCCC(=O)OCCCCCCCCCCCC :: 91.9
5) CCCCCCCCCCCOC(=O)CCCN(CCO)CCCN(CCCC(=O)OCCCCCCCCCCC)CCCC(=O)OCCCCCCCCCCC :: 81.2
6) CCCCCCCCCCCOC(=O)CCCCCCN(CCCCO)CCCN(CCCCCCC(=O)OCCCCCCCCCCC)CCCCCCC(=O)OCCCCCCCCCCC :: 96.6
7) CCCCCCCCCCCOC(=O)CCN(CCCCO)CCCN(CCC(=O)OCCCCCCCCCCC)CCC(=O)OCCCCCCCCCCC :: 91.9
8) CCCCCC/C=C\COC(=O)CCCCCN(CCO)CCCN(CCCCCC(=O)OC/C=C\CCCCCC)CCCCCC(=O)OC/C=C\CCCCCC :: 76.6
9) CCCCCCCCCCCCCOC(=O)CCCN(CCCCO)CCCN(CCCC(=O)OCCCCCCCCCCCCC)CCCC(=O)OCCCCCCCCCCCCC :: 60.3
10) CCCCCCCCCCCOC(=O)CCCCCCN(CCCO)CCCN(CCCCCCC(=O)OCCCCCCCCCCC)CCCCCCC(=O)OCCCCCCCCCCC :: 94.2
11) CCCCC/C=C\C/C=C\CCCCCCCCOC(=O)CCCN(CCCO)CCCCN(CCCC(=O)OCCCCCCCC/C=C\C/C=C\CCCCC)CCCC(=O)OCCCCCCCC/C=C\C/C=C\CCCCC :: 96.7
12) CC/C=C\COC(=O)CCCCCCCN(CCO)CCCN(CCCCCCCC(=O)OC/C=C\CC)CCCCCCCC(=O)OC/C=C\CC :: 95
13) CCCCCCCCCCCCCOC(=O)CCN(CCCO)CCCN(CCC(=O)OCCCCCCCCCCCCC)CCC(=O)OCCCCCCCCCCCCC :: 97.3
